biological target: CXCR4 (Homo sapiens, UniProt P61073); construct: Human T lymphoblast cells (CCRF-CEM) expressing endogenous CXCR4 receptors; endogenous in cells; host or cells: CCRF-CEM (human T lymphoblast cells); assay: CXCR4-CEM calcium flux assay, antagonist mode (inhibition of SDF-1α-induced calcium flux); format: cell-based; conditions: CCRF-CEM cells expressing endogenous CXCR4, stimulated with 4 nM SDF-1α, read-out: CXCR4 Ca^2+ Flux IC50
Sequence (P61073 whole entry): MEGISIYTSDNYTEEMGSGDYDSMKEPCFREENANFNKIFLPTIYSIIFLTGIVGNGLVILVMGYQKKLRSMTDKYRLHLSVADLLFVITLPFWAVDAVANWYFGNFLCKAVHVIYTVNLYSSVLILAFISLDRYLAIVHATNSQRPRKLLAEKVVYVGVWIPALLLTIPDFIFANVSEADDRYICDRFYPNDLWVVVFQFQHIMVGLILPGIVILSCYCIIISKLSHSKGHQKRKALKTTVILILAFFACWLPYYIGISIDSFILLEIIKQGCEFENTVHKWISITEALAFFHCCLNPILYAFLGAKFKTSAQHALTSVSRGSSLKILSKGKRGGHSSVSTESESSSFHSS
pIC50: −log10 of the molar value.
Decision: pIC50 >= 7 yields criterion met, all other cases yield criterion not met.

1) C/C(CN)=C(\F)CN(CC1Cc2ccccc2CN1)[C@H]1CCCc2cccnc21 (stereo partly drawn) = criterion met
2) CC1(C)CCC(NCc2ccc(CN(C[C@H]3Cc4ccccc4CN3)[C@H]3CCCc4cccnc43)cc2)CC1 = criterion not met
3) NCC1CC1CN(C[C@H]1Cc2ccccc2CN1)[C@H]1CCCc2cccnc21 (single isomer, unassigned) [EMU030 (Stereoisomer 2)] = criterion met
4) CN(CC1Cc2c(cccc2N2CCC(N)CC2)CN1)[C@H]1CCCc2cccnc21 (single isomer, unassigned) = criterion met
5) Cc1nc(CN(CCCCN)C[C@H]2Cc3ccccc3CN2)cs1 = criterion not met
6) CC(C)(CCN)CN(C[C@H]1Cc2ccccc2CN1)[C@H]1CCCc2cccnc21 = criterion not met
7) CN(C[C@H]1Cc2c(cccc2N2CCN(C3CC3)CC2)CN1)[C@H]1CCCc2cccnc21 = criterion met
8) C(=C\CN(C[C@H]1Cc2ccccc2CN1)[C@H]1CCCc2cccnc21)/CNCc1ccccn1 = criterion met
9) NC1CCC(N(C[C@H]2Cc3ccccc3CN2)[C@H]2CCCc3cccnc32)CC1 (single isomer, unassigned) [EMU073 (Stereoisomer 1)] = criterion met
10) c1cnc2c(c1)CCC[C@@H]2N(CC1CCCCC1)CC1Cc2c(cccc2N2CCNCC2)CN1 (single isomer, unassigned) [EMU100 (Stereoisomer 2)] = criterion not met
11) C/C(=C/CN(C[C@H]1Cc2ccccc2CN1)[C@H]1CCCc2cccnc21)CN = criterion met
12) C[C@@H]1CN(c2cccc3c2CC(CN(C)[C@H]2CCCc4cccnc42)NC3)C[C@H](C)N1 (single isomer, unassigned) [EMU096 (Stereoisomer 2)] = criterion not met
13) c1ccc(CNCc2ccc(CN(C[C@H]3Cc4ccccc4CN3)[C@H]3CCCc4cccnc43)cc2)nc1 = criterion not met
14) Cc1cccnc1CN(CCCN1CCNCC1)C[C@H]1Cc2c(cccc2N2CCNCC2)CN1 = criterion met

Data origin: patent US12582645B2
